Assay: Cytotoxicity against human A875 cells assessed as growth inhibition at 40 ug/mL after 72 hrs by MTT assay
Type: functional
Conditions: A875, 72 h, read-out: GI
Readout kind: inhibition of growth at 40 µg/mL (%)
Numbers only, in %.

# example entries with known answers
* O=C(Nc1ccc(F)cc1)c1cc2c([nH]c3ccccc32)c(C(=O)c2c[nH]c3ccccc23)n1 | 20.7
* COC(=O)c1cc2c([nH]c3ccccc32)c(C(=O)c2c[nH]c3ccccc23)n1 | 36.8
* O=C(NCCc1ccc(F)cc1)c1cc2c([nH]c3ccccc32)c(C(=O)c2c[nH]c3ccccc23)n1 | 33.9

Hello, I would appreciate it if you could give inhibition of growth at 40 µg/mL for each entry below.
1. O=C(NCc1cccnc1)c1cc2c([nH]c3ccccc32)c(C(=O)c2c[nH]c3ccccc23)n1
2. O=C(NCCc1cccc(O)c1)c1cc2c([nH]c3ccccc32)c(C(=O)c2c[nH]c3ccccc23)n1
3. COc1ccc(NC(=O)c2cc3c([nH]c4ccccc43)c(C(=O)c3c[nH]c4ccccc34)n2)cc1
4. O=C(O)c1cc2c([nH]c3ccccc32)c(C(=O)c2c[nH]c3ccccc23)n1
5. COc1cc(CNC(=O)c2cc3c([nH]c4ccccc43)c(C(=O)c3c[nH]c4ccccc34)n2)ccc1O
6. Cc1ccc(CNC(=O)c2cc3c([nH]c4ccccc43)c(C(=O)c3c[nH]c4ccccc34)n2)cc1

1. 74.2
2. 87.5
3. 72.1
4. 72.2
5. 81.7
6. 27
